# Test system: RXF 393 renal
# Assay explanation: NCI tumour cell line growth inhibition, 48 h
Test readout: TGI

Record excerpt, results attached:
INSERT INTO measurements (compound, study_system, observed) VALUES
  ('CSc1cc(Cl)c(C(=O)Nc2ccccc2)cc1S(=O)(=O)n1cc[nH]c1=O', 'RXF 393 renal', '> 100 µM'),
  ('C=Cc1c(-c2ccccc2)cnc2[nH]c3ccccc3c12', 'RXF 393 renal', '> 50 µM'),
  ('COc1ccc2c(c1)C1Oc3ccccc3CC1CO2 (stereo unspecified)', 'RXF 393 renal', '88.9 µM'),
  ('N#C/C(=C\c1ccccn1)c1nc2ccccc2o1', 'RXF 393 renal', '82.2 µM'),
  ('COc1cc(Br)c(C=Nc2cccc3ccc(OS(=O)(=O)c4ccc([N+](=O)[O-])cc4)cc23)cc1OC', 'RXF 393 renal', '> 100 µM');

Read the next record carefully.
TGI measured on `CC1=NN(c2nc(N)nc(CCl)n2)C(C)(C)C1` = > 100 µM

---

# Tested on: MDA-MB-435
# Assay explanation: NCI tumour cell line growth inhibition, 48 h
Test readout: TGI (µM)
Numbers only, in µM.

Answered cases to consult:
INSERT INTO assay_data (compound, test_readout, output_unit, observed) VALUES
  ('CC1(c2cccc(C(F)(F)F)c2)CC(c2cccc(C(F)(F)F)c2)=C(C#N)C(=C(C#N)C#N)N1 (centres undefined)', 'TGI', 'µM', 32.6),
  ('C=C1C(=O)OC2/C=C(\CO)C3OC3C3OC3(C)CC(OC(=O)/C(=C/C)COC(C)=O)C12 (centres undefined)', 'TGI', 'µM', 7.88),
  ('Cc1ccccc1-n1c(=O)nc2n(-c3ccc(C(C)(C)C)cc3)c3ccccc3cc-2c1=O', 'TGI', 'µM', 27.9),
  ('O=C(N/N=C/c1coc2ccc(Cl)cc2c1=O)c1cc(O)c(O)c(O)c1', 'TGI', 'µM', 66.7);

For this compound ( `COc1cccc(/C=C2\COc3ccc(O)c(O)c3C2=O)c1OC` ), measured TGI is 7

---

# Test system: SN12C renal
# Assay explanation: NCI tumour cell line growth inhibition, 48 h
What TGI was measured for each of the following?

INSERT INTO measurements (compound, test_readout, observed) VALUES
  ('O=C(/C=C/c1cccc(Cl)c1)c1ccccc1', 'TGI', '28.3 µM'),
  ('CC1(C)COC(c2cccc(C(=O)c3ccccc3)c2)=N1', 'TGI', '> 100 µM'),
  ('CC1=NN(c2nc(N)nc(CCl)n2)C(C)(C)C1', 'TGI', '> 68.7 µM');

Please go through the list and note TGI for each compound.
1. COc1cc(Br)c(/C=N/N=C(\N)NO)cc1OC
2. CCSc1c2cc(OC)ccc2nc2ccc(OC)cc12
3. CC(C)CC1CC2C(=O)N(c3ccccc3)C(=O)C2c2[nH]c3ccccc3c21 (configuration not stated)
4. Cc1ccc(C)c(NC(=O)C(=O)C(C2C(C)CC(=O)C2CC(=O)O)[N+](=O)[O-])c1 (configuration not stated)

Reply:
83.2 µM
50.9 µM
> 43.8 µM
> 100 µM

---

# Test system: RPMI-8226 leukemia
# Assay explanation: NCI tumour cell line growth inhibition, 48 h
Test readout: TGI (µM)
Answers are plain numbers, in µM.

// known answers, use as guide
INSERT INTO results (molecule, observed) VALUES
  ('Cc1cc(NS(=O)(=O)c2ccc(NC(=O)c3ccc4nc5ccccc5c(Nc5ccc(S(N)(=O)=O)cc5)c4c3)cc2)no1', 68),
  ('CC[C@@]1(O)C(=O)OCc2c1cc1n(c2=O)Cc2cc3c(N)c(OC)ccc3nc2-1', 2.32),
  ('COc1cccc(/C=C2\COc3ccc(O)c(O)c3C2=O)c1OC', 8.7);

In the following, a different molecule is considered.
CCCCCCCCCCCCCCCCNc1nc(=O)n(C2CC(O)C(COP(=O)(O)OC3CC(n4cc(F)c(=O)[nH]c4=O)OC3CO)O2)cc1F (centres undefined) on RPMI-8226 leukemia gives TGI = 25.5
